Value source: patent EP3638670B1

Tested on: pSer376-SLP-76
Assay: Phosphorylation assay in human cell line (pSer376-SLP-76, capillary electrophoresis)
Format: cell-based
Conditions: 0.5 h, Jurkat E6.1 cells overexpressing FLAG-tagged SLP-76, a-CD3 (OKT3) stimulation, 30 min at 37 °C, 10µM compound, read-out: % amount of pSer376-SLP-76 @ 10µM
Mark class 0 for activity at 10 µM values under 20%, and class 1 for everything at or above.

In: Is the recorded value of activity at 10 µM equal to or greater than 20% for this compound? O=C(NCCCN1CCOCC1)Nc1ccc(Oc2ccnc3[nH]cc(C(F)(F)F)c23)c(OC(F)(F)F)c1 [Example 12]
Out: class 1

In: activity at 10 µM >= 20% for COc1cc(NC(=O)NCCCN2CCOCC2)ccc1Oc1ccnc2[nH]cc(C(F)(F)F)c12 [Example 11] ?
Out: class 1

In: Is activity at 10 µM for Cc1ncc(NC(=O)Nc2ccc(Oc3ccnc4[nH]cc(Cl)c34)c(C(F)(F)F)c2)cn1 [Example 10] at or above 20%?
Out: class 0

In: Reported activity at 10 µM reaches at least 20% for O=C(NCCN1CCOCC1)Nc1ccc(Oc2ccnc3[nH]cc(C(F)(F)F)c23)c(C(F)(F)F)c1 [Example 1] ?
Out: class 1

In: hey, is activity at 10 µM for this one >= 20%? O=C(NCCN1CCOCC1)Nc1ccc(Oc2ccnc3[nH]cc(Cl)c23)c(C(F)(F)F)c1 [Example 7]
Out: class 0

In: Form field: activity at 10 µM at least 20%? Entry: NC(=O)Nc1ccc(Oc2ccnc3[nH]cc(Cl)c23)c(C(F)(F)F)c1 [Example 8]
Out: class 1

In: Given O=C(NCCCN1CCOCC1)Nc1ccc(Oc2ccnc3[nH]cc(Cl)c23)c(C(F)(F)F)c1 [Example 6] , state whether its activity at 10 µM is at least 20%.
Out: class 1

In: Record O=C(NCCCN1CCOCC1)Nc1ccc(Oc2ccnc3[nH]cc(C(F)(F)F)c23)c(C(F)(F)F)c1 [Example 2] ; criterion: activity at 10 µM no lower than 20%. Met?
Out: class 1

In: Identify whether the reported activity at 10 µM of the following compound is 20% or greater: O=C(NCCCN1CCOCC1)Nc1cc(F)c(Oc2ccnc3[nH]cc(C(F)(F)F)c23)c(C(F)(F)F)c1 [Example 4]
Out: class 0

In: Is activity at 10 µM for NC(=O)Nc1ccc(Oc2ccnc3[nH]cc(C(F)(F)F)c23)c(C(F)(F)F)c1 [Example 3] at or above 20%?
Out: class 1

In: Does the compound O=C(NCCN1CCOCC1)Nc1cc(F)c(Oc2ccnc3[nH]cc(C(F)(F)F)c23)c(C(F)(F)F)c1 [Example 5] have recorded activity at 10 µM that is 20% or more?
Out: class 1

* * *

Target: MAP4K1 (Homo sapiens)
Construct: A recombinant fusion protein of N-terminal GST and full-length human
Sequence (Q92918 whole entry, the tested form may be a part): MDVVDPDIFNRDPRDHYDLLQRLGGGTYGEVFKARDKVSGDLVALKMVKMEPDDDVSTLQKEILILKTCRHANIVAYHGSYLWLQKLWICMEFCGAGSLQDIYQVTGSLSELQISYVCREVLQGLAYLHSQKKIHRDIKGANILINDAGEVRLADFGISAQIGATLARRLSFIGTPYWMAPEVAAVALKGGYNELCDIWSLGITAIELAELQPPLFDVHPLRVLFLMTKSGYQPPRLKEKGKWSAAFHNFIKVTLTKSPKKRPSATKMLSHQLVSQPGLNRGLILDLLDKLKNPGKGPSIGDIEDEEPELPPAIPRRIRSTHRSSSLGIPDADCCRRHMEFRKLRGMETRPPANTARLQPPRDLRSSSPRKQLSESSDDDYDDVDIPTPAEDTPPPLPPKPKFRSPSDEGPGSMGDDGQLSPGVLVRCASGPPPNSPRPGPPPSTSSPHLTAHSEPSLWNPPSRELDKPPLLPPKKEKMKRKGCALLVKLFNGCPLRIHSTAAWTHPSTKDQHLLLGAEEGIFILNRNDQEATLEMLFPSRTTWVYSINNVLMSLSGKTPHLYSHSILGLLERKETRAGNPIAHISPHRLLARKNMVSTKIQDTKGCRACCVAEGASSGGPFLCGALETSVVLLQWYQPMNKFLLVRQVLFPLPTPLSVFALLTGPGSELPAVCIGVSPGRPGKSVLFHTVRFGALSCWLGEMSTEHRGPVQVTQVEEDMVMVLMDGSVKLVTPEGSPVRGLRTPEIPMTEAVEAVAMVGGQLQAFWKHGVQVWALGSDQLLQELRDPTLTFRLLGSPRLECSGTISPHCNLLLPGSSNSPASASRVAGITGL
Assay: TR-FRET-based binding competition assay (Tracer 222, GST-fusion protein)
Settings: inhibition of binding of Tracer 222 (15 nM) to GST-fusion protein (1 nM), 30 min at 22°C
Please provide measured IC50 for the entries that follow.
Write down the numeric answer in µM and omit the unit.

In: Give a short answer stating reported IC50 for Cc1ncc(NC(=O)Nc2ccc(Oc3ccnc4[nH]cc(Cl)c34)c(C(F)(F)F)c2)cn1 .
Out: 0.171

In: Please indicate IC50 recorded for O=C(NCCN1CCOCC1)Nc1ccc(Oc2ccnc3[nH]cc(C(F)(F)F)c23)c(OC(F)(F)F)c1
Out: 0.439

In: Complete the entry with IC50 for O=C(NCCCN1CCOCC1)Nc1cc(F)c(Oc2ccnc3[nH]cc(C(F)(F)F)c23)c(C(F)(F)F)c1
Out: 0.065

In: Consider the compound O=C(NCCCN1CCOCC1)Nc1ccc(Oc2ccnc3[nH]cc(Cl)c23)c(C(F)(F)F)c1 . State its measured IC50.
Out: 0.158

In: Supply recorded IC50 for O=C(Nc1ccc(Oc2ccnc3[nH]cc(Cl)c23)c(C(F)(F)F)c1)Nc1cccnn1 here.
Out: 1.26
